Tested on: Enterococcus faecalis
Assay: Antibacterial activity against vancomycin-susceptible Enterococcus faecalis ATCC 29212 after 24 hrs
Assay type: functional
Conditions: ATCC 29212, 24 h
Task for the reader: assign each of the following compounds its reported MIC.

### Prompt Identify MIC associated with the compound O=C(Nc1ccccc1)c1cc(Cl)ccc1O
### Response 0.5 µM

// for each compound in input: emit MIC
1. COc1ccc(NC(=O)c2cc(Cl)ccc2OC(=O)[C@@H](NC(=O)OCc2ccccc2)C(C)C)cc1
2. O=C(Nc1ccc([N+](=O)[O-])cc1)c1cc(Cl)ccc1O
3. CC(C)[C@H](NC(=O)OCc1ccccc1)C(=O)Oc1cc(Cl)ccc1C(=O)Nc1ccc(Cl)c(Cl)c1
4. O=C(Nc1ccc(Cl)cc1)c1cc([N+](=O)[O-])ccc1O
5. O=C(Nc1ccc(Cl)c(Cl)c1)c1ccc(Cl)cc1O

### Response
["> 499 µM", "0.85 µM", "> 465 µM", "> 874 µM", "0.395 µM"]

// for each compound in input: emit MIC
1. CC(C)[C@H](NC(=O)OCc1ccccc1)C(=O)Oc1ccc([N+](=O)[O-])cc1C(=O)Nc1ccc(Cl)cc1
2. CC(C)[C@H](NC(=O)OCc1ccccc1)C(=O)Oc1ccc(Cl)cc1C(=O)Nc1ccc([N+](=O)[O-])cc1

### Response
> 466 µM
> 486 µM

====

Tested on: Enterococcus faecalis
Experiment: Antibacterial activity against vancomycin-susceptible Enterococcus faecalis ATCC 29212 after 24 hrs
Format: functional
Conditions: ATCC 29212, 24 h
Task for the reader: assign each of the following compounds its reported MIC.
Numbers only, in µM.

### Prompt Identify MIC associated with the compound O=C(Nc1ccc(C(F)(F)F)cc1)c1cc(Cl)ccc1O
### Response 0.199

Now take the following compound into account.
### Prompt Identify MIC associated with the compound CC(C)[C@H](NC(=O)c1cc(Cl)ccc1O)C(=O)Nc1ccc(C(F)(F)F)cc1
### Response 19.3

====

Test system: Enterococcus faecalis
Assay: Antibacterial activity against vancomycin-resistant Enterococcus faecalis 725B after 24 hrs
Type: functional
Task for the reader: assign each of the following compounds its reported MIC.
Answers are plain numbers, in µM.

// for each compound in input: emit MIC
1. O=C(Nc1ccc(Cl)c(Cl)c1)c1ccc(Cl)cc1O
2. O=C(Nc1ccc([N+](=O)[O-])cc1)c1cc(Cl)ccc1O
3. O=C(Nc1ccccc1)c1cc(Cl)ccc1O
4. CN[C@H](CC(C)C)C(=O)N[C@H]1C(=O)N[C@@H](CC(N)=O)C(=O)N[C@H]2C(=O)N[C@H]3C(=O)N[C@H](C(=O)N[C@H](C(=O)O)c4cc(O)cc(O)c4-c4cc3ccc4O)[C@H](O)c3ccc(c(Cl)c3)Oc3cc2cc(c3O[C@@H]2O[C@H](CO)[C@@H](O)[C@H](O)[C@H]2O[C@H]2C[C@](C)(N)[C@H](O)[C@H](C)O2)Oc2ccc(cc2Cl)[C@H]1O [VANCOMYCIN]

### Response
[0.199, 3.42, 129, 706]

====

Experiment: Cytotoxicity against human THP1 cells after 24 hrs by LDH release assay
Format: cell-based
Settings: THP-1 cells, read-out: LD50
Task for the reader: assign each of the following compounds its reported CC50 at 24 h.

Example entries begin here.
### Prompt Identify CC50 at 24 h associated with the compound O=C(Nc1ccccc1)c1cc(Cl)ccc1O
### Response > 40 µM

### Prompt Identify CC50 at 24 h associated with the compound O=C(Nc1ccc(Cl)c(Cl)c1)c1ccc(Cl)cc1O
### Response 25.6 µM

Now take the following compound into account.
### Prompt Identify CC50 at 24 h associated with the compound O=C(Nc1ccc(Cl)cc1)c1cc([N+](=O)[O-])ccc1O
### Response > 40 µM
